Recorded values, source patent US20180244785A1.

Target: T1, soluble FGFR4 receptor protein (human, UniProt P22455 144-369)
T1 sequence: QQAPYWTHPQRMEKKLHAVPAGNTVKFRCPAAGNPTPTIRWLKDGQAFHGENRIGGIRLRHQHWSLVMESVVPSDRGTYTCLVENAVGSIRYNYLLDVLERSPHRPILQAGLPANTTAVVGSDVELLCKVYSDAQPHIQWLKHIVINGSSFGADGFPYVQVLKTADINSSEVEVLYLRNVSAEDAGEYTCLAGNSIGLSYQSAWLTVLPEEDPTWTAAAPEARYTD
Experiment: BLI Octet RED96, antibody on anti-hIgG Fc tip
readout: koff (s⁻¹)

• Ab90 (antibody, human IgG2, kappa, V domains shown, format in the assays not spelled out) VH: EVQLLESGGGVVQPGRSLRLSCAASGFTFSSYAMHWVRQAPGKGLEWVAVISYDGSNKYYADSVKGRFTISRDNSKNTLSLQMNSLRVEDTAIYYCVRGAGRGYPYGPDGFDIWGQGTMVTVSS VL: DIVMTQTPLSLSVTPGQPASISCTSSRSLLHSDGKTYVYWYVQKSGQPPQLLIYELSNRFSGVPDRFSGSGSRTDFTLKISRVEAEDVGVYYCMQYVEVPLTFGGGTKVEIKR = 0.000887
• Vh2 combined with the VL of Ab15 (antibody, V domains shown, captured on anti-human IgG Fc tips) VH: EVQLVESGGGVVQPGRSLRLSCAASGFTFSSYAMHWVRQAPGKGLEWVAVISYDGSNKYYADSVKGRFTISRDNSKNTLYLQMNSLRAEDTAVYYCARGAGRGYTYGPDGFDIWGQGTMVTVSS VL: DIVMTQTPLSLSVTPGQPASISCTSSRSLLHSDGKTYVYWYVQKSGQPPQLLIYELSNRFSGVPDRFSGSGSRTDFTLKISRVEAEDVGVYYCMQYIEAPLTFGGGTKVEIK = 0.000492
• Vk7 combined with the VH of Ab15 (antibody, V domains shown, captured on anti-human IgG Fc tips) VH: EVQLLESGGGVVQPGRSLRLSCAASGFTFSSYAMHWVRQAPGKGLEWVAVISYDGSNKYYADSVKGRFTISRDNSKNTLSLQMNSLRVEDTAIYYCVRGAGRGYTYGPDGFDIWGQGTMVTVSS VL: DIVMTQSPLSLPVTPGEPASISCKSSQSLLHSDGKTYLYWYLQKPGQPPQLLIYELSNRFSGVPDRFSGSGSGTDFTLKISRVEAEDVGVYYCMQYIEAPLTFGGGTKVEIK = 0.00101
• Vk2 combined with the VH of Ab15 (antibody, V domains shown, captured on anti-human IgG Fc tips) VH: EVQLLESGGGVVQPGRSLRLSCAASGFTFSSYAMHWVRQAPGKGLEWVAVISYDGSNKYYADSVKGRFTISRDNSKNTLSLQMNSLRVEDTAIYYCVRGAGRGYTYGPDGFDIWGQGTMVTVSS VL: DIVMTQTPLSLSVTPGQPASISCTSSRSLLHSDGKTYVYWYLQKPGQPPQLLIYELSNRFSGVPDRFSGSGSRTDFTLKISRVEAEDVGVYYCMQYIEAPLTFGGGTKVEIK = 0.000888
• Vk6 combined with the VH of Ab15 (antibody, V domains shown, captured on anti-human IgG Fc tips) VH: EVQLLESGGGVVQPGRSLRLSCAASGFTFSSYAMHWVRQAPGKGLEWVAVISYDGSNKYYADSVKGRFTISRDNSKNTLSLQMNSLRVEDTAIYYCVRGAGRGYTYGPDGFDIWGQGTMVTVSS VL: DIVMTQTPLSLSVTPGQPASISCKSSQSLLHSDGKTYLYWYLQKPGQPPQLLIYELSNRFSGVPDRFSGSGSGTDFTLKISRVEAEDVGVYYCMQYIEAPLTFGGGTKVEIK = 0.00112
• Vh1 combined with the VL of Ab15 (antibody, V domains shown, captured on anti-human IgG Fc tips) VH: EVQLVESGGGVVQPGRSLRLSCAASGFTFSSYAMHWVRQAPGKGLEWVAVISYDGSNKYYADSVKGRFTISRDNSKNTLYLQMNSLRAEDTAIYYCVRGAGRGYTYGPDGFDIWGQGTMVTVSS VL: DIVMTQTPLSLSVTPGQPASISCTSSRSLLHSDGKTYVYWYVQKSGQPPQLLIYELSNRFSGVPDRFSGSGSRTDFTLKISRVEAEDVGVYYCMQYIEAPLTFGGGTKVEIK = 0.000682
